B1: TPR t1 (parent)
chain: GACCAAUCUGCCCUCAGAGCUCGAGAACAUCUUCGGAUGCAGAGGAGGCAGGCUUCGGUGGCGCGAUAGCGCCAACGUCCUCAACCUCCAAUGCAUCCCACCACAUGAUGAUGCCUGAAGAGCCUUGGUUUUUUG

# Variants of: B1
# assay.name: polymerase ribozyme fitness, log enrichment relative to wild type (log ratio); higher = more active; in vitro selection for triplet polymerase activity
Returns the class for an entry based on its polymerase ribozyme fitness (log ratio). Class ranges: lower bin (below -4), middle bin (-4 to below -1), upper bin (-1 or more)

Please review the following examples before continuing.
• C40G U92C = middle bin
• C8U C97U U116C = upper bin
• C62A C89A = middle bin
• A27G G69C C102U = lower bin
• G57A G61A C104U = upper bin

### Prompt Category of A29U G35A C56U C72U U96A C98G C115G , please.
### Response lower bin

### Prompt # bin label for G44C G48U C53A G61C U112G
### Response lower bin

### Prompt Where would C8U C82U G113U land among the classes by reported polymerase ribozyme fitness (log ratio)?
### Response middle bin

### Prompt Lab note: sort U55A G63A U78A into the matching polymerase ribozyme fitness (log ratio) band.
### Response upper bin

### Prompt Band assignment needed for A68U U130C please.
### Response lower bin

### Prompt For C3U C86U A95U U125G U126G , which polymerase ribozyme fitness (log ratio) bin applies?
### Response middle bin
